Tested on: Hepatocyte
Experiment: Hepatoprotective activity against mouse hepatocytes assessed as inhibition of D-galactosamine/TNFalpha-induced cell death at 200 uM after 18 hrs by MTT assay
Format: functional

# molecule, assayed_system, inhibition at 200 µM, %
rows = [
    ("C=C(C)[C@@H]1CC[C@]2(C(=O)O[C@@H]3O[C@H](CO)[C@@H](O)[C@H](O)[C@H]3O)CC[C@]3(C)[C@H](CC[C@@H]4[C@@]5(C)C[C@@H](O)[C@H](O)[C@@](C)(CO)[C@@H]5[C@H](O)C[C@]43C)[C@@H]12 [QUADRANOSIDE II]", "Hepatocyte", 83.6),
    ("C[C@@]1(CO)CC[C@]2(C(=O)O[C@@H]3O[C@H](CO)[C@@H](O)[C@H](O)[C@H]3O)CC[C@]3(C)C(=CC[C@@H]4[C@@]5(C)C[C@@H](O)[C@H](O)[C@@](C)(CO)[C@@H]5CC[C@]43C)[C@@H]2C1 [QUADRANOSIDE III]", "Hepatocyte", 35.5),
    ("C=C(C)[C@@H]1CC[C@]2(C(=O)O[C@@H]3O[C@H](CO)[C@@H](O)[C@H](O)[C@H]3O)CC[C@]3(C)[C@H](CC[C@@H]4[C@@]5(C)C[C@@H](O)[C@H](O)C(C)(C)[C@@H]5[C@H](O)C[C@]43C)[C@@H]12 [QUADRANOSIDE I]", "Hepatocyte", 71.2),
    ("CC1=C2C3=CC[C@@H]4[C@@]5(C)C[C@@H](O)[C@H](O)[C@@](C)(CO)[C@@H]5[C@H](O)C[C@@]4(C)[C@]3(C)CC[C@@]2(C(=O)O[C@@H]2O[C@H](CO)[C@@H](O)[C@H](O)[C@H]2O)CC[C@H]1C [QUADRANOSIDE V]", "Hepatocyte", 80.1),
]

====

inhibition at 200 µM reference
System: Hepatocyte
Assay: Hepatoprotective activity against mouse hepatocytes assessed as inhibition of D-galactosamine/TNFalpha-induced cell death at 200 uM after 18 hrs by MTT assay
Assay type: functional

# compound, inhibition at 200 µM, %
rows = [
    ("CC1(C)CC[C@]2(C(=O)O[C@@H]3O[C@H](CO)[C@@H](O)[C@H](O)[C@H]3O)CC[C@]3(C)C(=CC[C@@H]4[C@@]5(C)C[C@@H](O)[C@H](O)[C@@](C)(CO)[C@@H]5CC[C@]43C)[C@@H]2[C@@H]1O [ARJUNGLUCOSIDE I]", 32.7),
    ("CC1=C(C)[C@H]2C3=CC[C@@H]4[C@@]5(C)C[C@@H](O)[C@H](O)[C@@](C)(CO)[C@@H]5CC[C@@]4(C)[C@]3(C)CC[C@@]2(C(=O)O[C@@H]2O[C@H](CO)[C@@H](O)[C@H](O)[C@H]2O)CC1", 15),
]

====

Tested on: Hepatocyte
Experiment: Hepatoprotective activity against mouse hepatocytes assessed as inhibition of D-galactosamine/TNFalpha-induced cell death at 25 uM after 18 hrs by MTT assay
Type: functional
Would you mind labelling by inhibition at 25 µM? At or over 30% is criterion met, under is criterion not met.

# compound, assayed_system, assigned_category
rows = [
    ("C[C@@]1(CO)CC[C@]2(C(=O)O[C@@H]3O[C@H](CO)[C@@H](O)[C@H](O)[C@H]3O)CC[C@]3(C)C(=CC[C@@H]4[C@@]5(C)C[C@@H](O)[C@H](O)[C@@](C)(CO)[C@@H]5CC[C@]43C)[C@@H]2C1 [QUADRANOSIDE III]", "Hepatocyte", "criterion not met"),
    ("CC1=C2C3=CC[C@@H]4[C@@]5(C)C[C@@H](O)[C@H](O)[C@@](C)(CO)[C@@H]5[C@H](O)C[C@@]4(C)[C@]3(C)CC[C@@]2(C(=O)O[C@@H]2O[C@H](CO)[C@@H](O)[C@H](O)[C@H]2O)CC[C@H]1C [QUADRANOSIDE V]", "Hepatocyte", "criterion met"),
    ("C=C(C)[C@@H]1CC[C@]2(C(=O)O[C@@H]3O[C@H](CO)[C@@H](O)[C@H](O)[C@H]3O)CC[C@]3(C)[C@H](CC[C@@H]4[C@@]5(C)C[C@@H](O)[C@H](O)[C@@](C)(CO)[C@@H]5[C@H](O)C[C@]43C)[C@@H]12 [QUADRANOSIDE II]", "Hepatocyte", "criterion met"),
    ("C=C(C)[C@@H]1CC[C@]2(C(=O)O[C@@H]3O[C@H](CO)[C@@H](O)[C@H](O)[C@H]3O)CC[C@]3(C)[C@H](CC[C@@H]4[C@@]5(C)C[C@@H](O)[C@H](O)C(C)(C)[C@@H]5[C@H](O)C[C@]43C)[C@@H]12 [QUADRANOSIDE I]", "Hepatocyte", "criterion not met"),
    ("COc1cc(C2Oc3cc([C@H]4Oc5cc(O)cc(O)c5C(=O)[C@@H]4O)ccc3OC2CO)ccc1O (stereo not given in full)", "Hepatocyte", "criterion met"),
]
